assay: self-splicing fitness, log relative to wild type (ln ratio); higher = more splicing; Tetrahymena group I intron in knt gene, E. coli kanamycin selection, DiMSum; sequences stand for … in CUCUCU…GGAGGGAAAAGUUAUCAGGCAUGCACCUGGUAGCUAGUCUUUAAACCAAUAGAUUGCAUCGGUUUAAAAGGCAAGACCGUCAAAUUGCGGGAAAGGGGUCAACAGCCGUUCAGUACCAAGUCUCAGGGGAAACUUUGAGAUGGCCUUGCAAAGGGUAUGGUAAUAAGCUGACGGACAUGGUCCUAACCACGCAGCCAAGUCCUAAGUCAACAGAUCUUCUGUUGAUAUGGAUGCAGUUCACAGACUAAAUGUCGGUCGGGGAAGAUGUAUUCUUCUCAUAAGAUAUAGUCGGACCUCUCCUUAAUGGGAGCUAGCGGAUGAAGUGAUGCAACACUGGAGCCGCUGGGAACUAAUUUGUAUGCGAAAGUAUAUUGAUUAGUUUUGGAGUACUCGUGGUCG; conditions: 30 °C;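 also: selection with 25 µg/mL kanamycin versus none on LB agar overnight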
Value type: self-splicing fitness (ln)
Response field accepts a number only; no unit should be typed.

Input sequence: UGCUAGCAAUAUUACGGCAU
Observed value: -3.65

Q. Look up and state reported self-splicing fitness (ln) for AUAAAGCAAUAUUACGGUCU
A. -0.245

Q. Look up and state reported self-splicing fitness (ln) for GGUAAGCAAUAUUACGAGAA
A. -2.48

Q. Look up and state reported self-splicing fitness (ln) for GUGGAGCAAUAUUACGAAUC
A. -3.4

Q. Look up and state reported self-splicing fitness (ln) for AGGCAGCAAUAUUACGGAGA
A. -2.91

Q. Look up and state reported self-splicing fitness (ln) for UGGAAGCAAUAUUACGCUAA
A. -1.31

Q. Look up and state reported self-splicing fitness (ln) for AAUCAGCAAUAUUACGAUUG
A. -1.54

Q. Look up and state reported self-splicing fitness (ln) for UAGAAGCAAUAUUACGAUGC
A. -1.9

----------
experiment: self-splicing fitness, log relative to wild type (ln ratio); higher = more splicing; Tetrahymena group I intron in knt gene, E. coli kanamycin selection, DiMSum; sequences stand for … in CUCUCU…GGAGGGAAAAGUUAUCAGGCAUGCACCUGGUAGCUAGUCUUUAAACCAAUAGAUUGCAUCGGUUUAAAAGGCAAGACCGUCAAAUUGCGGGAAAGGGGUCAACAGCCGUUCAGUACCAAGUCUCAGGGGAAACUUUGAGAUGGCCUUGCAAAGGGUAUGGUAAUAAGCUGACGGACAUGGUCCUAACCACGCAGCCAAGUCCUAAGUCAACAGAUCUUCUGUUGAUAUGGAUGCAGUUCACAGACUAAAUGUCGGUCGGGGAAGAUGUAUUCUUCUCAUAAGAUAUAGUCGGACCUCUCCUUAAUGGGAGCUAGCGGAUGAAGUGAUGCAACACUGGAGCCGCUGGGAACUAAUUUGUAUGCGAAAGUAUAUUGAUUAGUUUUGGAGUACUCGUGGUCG; conditions: 37 °C
self-splicing fitness (ln) listing for selected sequences.
Response field accepts a number only; no unit should be typed.

Example cases with answers are listed next.
Input sequence: AGAUAGCAAUAUUACGCGAC
self-splicing fitness (ln): -1.21
--
Input sequence: UCCUAGCAAUAUUACGAGCU
self-splicing fitness (ln): -1.99
--
Input sequence: CUCAAGCAAUAUUACGGCAU
self-splicing fitness (ln): -1.58
--
Input sequence: GAUUAGCAAUAUUACGCCCC
self-splicing fitness (ln): -0.314
--
Input sequence: AGAGAGCAAUAUUACGCGAU
self-splicing fitness (ln): -2.82

Q. Look up and state reported self-splicing fitness (ln) for UGUCAGCAAUAUUACGUCUU
A. -0.0647

Q. Look up and state reported self-splicing fitness (ln) for UGGAAGCAAUAUUACGUUAG
A. -1.07

Q. Look up and state reported self-splicing fitness (ln) for GUGGAGCAAUAUUACGUAGU
A. -0.993

Q. Look up and state reported self-splicing fitness (ln) for GGCGAGCAAUAUUACGGUGU
A. -1.55

Q. Look up and state reported self-splicing fitness (ln) for CCACAGCAAUAUUACGUCUA
A. -2.43

Q. Look up and state reported self-splicing fitness (ln) for UGCGAGCAAUAUUACGGGAU
A. -2.21

Q. Look up and state reported self-splicing fitness (ln) for ACCAAGCAAUAUUACGACCG
A. -0.119

Q. Look up and state reported self-splicing fitness (ln) for CCUAAGCAAUAUUACGACAU
A. -2.82

Q. Look up and state reported self-splicing fitness (ln) for CUAAAGCAAUAUUACGUUAC
A. -2.06

Q. Look up and state reported self-splicing fitness (ln) for GUACAGCAAUAUUACGUUGA
A. -1.59

Q. Look up and state reported self-splicing fitness (ln) for GCCAAGCAAUAUUACGGGGU
A. -2.55

Q. Look up and state reported self-splicing fitness (ln) for GCGAAGCAAUAUUACGCAAU
A. -2.07

Q. Look up and state reported self-splicing fitness (ln) for AGUGAGCAAUAUUACGGGGC
A. -2.75

Q. Look up and state reported self-splicing fitness (ln) for GUUUAGCAAUAUUACGUAGA
A. -0.622

Q. Look up and state reported self-splicing fitness (ln) for GCAGAGCAAUAUUACGAUGA
A. -1.07

Q. Look up and state reported self-splicing fitness (ln) for GUUGAGCAAUAUUACGAGUG
A. -3.28

Q. Look up and state reported self-splicing fitness (ln) for UAGCAGCAAUAUUACGCCAA
A. -0.98

Q. Look up and state reported self-splicing fitness (ln) for UCGGAGCAAUAUUACGCGUG
A. -0.281

Q. Look up and state reported self-splicing fitness (ln) for UCCCAGCAAUAUUACGUAAA
A. 0.00983

----------
experiment: self-splicing fitness, log relative to wild type (ln ratio); higher = more splicing; Tetrahymena group I intron in knt gene, E. coli kanamycin selection, DiMSum; sequences stand for … in CUCUCU…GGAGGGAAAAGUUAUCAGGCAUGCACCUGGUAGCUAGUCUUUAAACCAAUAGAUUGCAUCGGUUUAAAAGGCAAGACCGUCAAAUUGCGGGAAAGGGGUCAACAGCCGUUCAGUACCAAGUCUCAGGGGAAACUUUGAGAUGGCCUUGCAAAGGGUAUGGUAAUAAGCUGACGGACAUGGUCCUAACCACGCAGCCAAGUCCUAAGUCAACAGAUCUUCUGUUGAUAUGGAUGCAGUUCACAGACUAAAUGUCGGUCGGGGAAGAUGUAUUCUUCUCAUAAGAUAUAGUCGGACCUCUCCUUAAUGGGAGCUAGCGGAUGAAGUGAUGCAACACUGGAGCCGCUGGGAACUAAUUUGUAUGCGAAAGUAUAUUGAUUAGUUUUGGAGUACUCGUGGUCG; conditions: 37 °C
Value type: self-splicing fitness (ln)
Response field accepts a number only; no unit should be typed.

Input sequence: CCCUAGCAAUAUUACGUAGC
self-splicing fitness (ln): -2.75
//
Input sequence: GCUAAGCAAUAUUACGGGGG
self-splicing fitness (ln): -1.89
//
Input sequence: CCGGAGCAAUAUUACGGUCU
self-splicing fitness (ln): -2.54

Q. Look up and state reported self-splicing fitness (ln) for AGCGAGCAAUAUUACGGCUG
A. -0.625

Q. Look up and state reported self-splicing fitness (ln) for AUUAAGCAAUAUUACGAUAC
A. -0.885

Q. Look up and state reported self-splicing fitness (ln) for GUACAGCAAUAUUACGCCGC
A. -2.46

Q. Look up and state reported self-splicing fitness (ln) for UCCCAGCAAUAUUACGUAGC
A. -2.19

Q. Look up and state reported self-splicing fitness (ln) for AAAGAGCAAUAUUACGCGUG
A. -1.79

Q. Look up and state reported self-splicing fitness (ln) for AAUGAGCAAUAUUACGACAA
A. -1.93

Q. Look up and state reported self-splicing fitness (ln) for AAACAGCAAUAUUACGAGUG
A. -1.8

Q. Look up and state reported self-splicing fitness (ln) for UAGAAGCAAUAUUACGGCGA
A. -0.385

Q. Look up and state reported self-splicing fitness (ln) for UGCCAGCAAUAUUACGAGCG
A. -0.309

Q. Look up and state reported self-splicing fitness (ln) for AACCAGCAAUAUUACGUCGA
A. -0.757

Q. Look up and state reported self-splicing fitness (ln) for UAAUAGCAAUAUUACGCUCA
A. -0.235

Q. Look up and state reported self-splicing fitness (ln) for GUGCAGCAAUAUUACGGCAA
A. 0.291

----------
experiment: self-splicing fitness, log relative to wild type (ln ratio); higher = more splicing; Tetrahymena group I intron in knt gene, E. coli kanamycin selection, DiMSum; sequences stand for … in CUCUCU…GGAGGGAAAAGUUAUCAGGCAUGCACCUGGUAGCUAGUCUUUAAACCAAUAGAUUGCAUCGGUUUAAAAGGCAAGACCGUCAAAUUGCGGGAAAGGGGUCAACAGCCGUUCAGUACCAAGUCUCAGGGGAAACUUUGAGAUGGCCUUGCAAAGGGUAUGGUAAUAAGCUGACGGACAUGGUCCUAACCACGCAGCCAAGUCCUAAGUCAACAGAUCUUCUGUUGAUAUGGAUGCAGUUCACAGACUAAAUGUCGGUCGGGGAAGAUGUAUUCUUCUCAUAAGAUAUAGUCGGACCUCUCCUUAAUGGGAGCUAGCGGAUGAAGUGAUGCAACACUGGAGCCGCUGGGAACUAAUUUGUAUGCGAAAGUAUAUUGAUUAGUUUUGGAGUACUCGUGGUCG; conditions: 30 °C
self-splicing fitness (ln) listing for selected sequences.
Response field accepts a number only; no unit should be typed.

Input sequence: AGCGAGCAAUAUUACGAUGG
self-splicing fitness (ln): -4.61
--
Input sequence: CGAAAGCAAUAUUACGGCUA
self-splicing fitness (ln): -1.72

Q. Look up and state reported self-splicing fitness (ln) for GGUCAGCAAUAUUACGCGAG
A. -1.93

Q. Look up and state reported self-splicing fitness (ln) for AAACAGCAAUAUUACGUAUG
A. -2.03

This collection of values is drawn from the supplement of paper PMC7877785.
